Consider the following compounds; for each one, report its MIC Staphylococcus aureus (ATCC 29213).
tested on: Staphylococcus sp.; experiment: in vitro antibacterial evaluation, MIC by broth dilution; assay type: cell-based; settings: broth dilution, 18 hours at 35° C.; strain ATCC 29213

Quick one: MIC Staphylococcus aureus (ATCC 29213) for CC(c1ccccc1)C1NC(=O)CNC(=O)C(CO)NC(=O)C(C(O)C2CNC(=N)N2C2OC(CO)C(O)C(O)C2O)NC(=O)C(C(O)C2CNC(=N)N2)NC(=O)C(Cc2ccc(OC3OC(CO)C(OC4OC(COC(=O)NCc5ccccc5)C(O)C(O)C4O)C(O)C3O)cc2)NC1=O (stereo not shown) [Example 257b] ?
0.5 µg/mL

Quick one: MIC Staphylococcus aureus (ATCC 29213) for Cc1ccc(CC2OCC3OC(OC4C(CO)OC(Oc5ccc(CC6NC(=O)C(C(C)c7ccccc7)NC(=O)CNC(=O)C(CO)NC(=O)C(C(O)C7CNC(=N)N7C7OC(CO)C(O)C(O)C7O)NC(=O)C(C(O)C7CNC(=N)N7)NC6=O)cc5)C(O)C4O)C(O)C(O)C3O2)cc1 (stereo not shown) [Example 119] ?
1 µg/mL

Quick one: MIC Staphylococcus aureus (ATCC 29213) for CC(C)C(=O)OCC1OC(OC2C(CO)OC(Oc3ccc(CC4NC(=O)C(Cc5ccccc5)NC(=O)CNC(=O)C(CO)NC(=O)C(C(O)C5CNC(=N)N5C5OC(CO)C(O)C(O)C5O)NC(=O)C(C(O)C5CNC(=N)N5)NC4=O)cc3)C(O)C2O)C(O)C(O)C1O (stereo not shown) [Example 283a] ?
64 µg/mL

Quick one: MIC Staphylococcus aureus (ATCC 29213) for CC(C)CC(=O)OC1C(OC2C(CO)OC(Oc3ccc(CC4NC(=O)C(C(C)c5cccc(F)c5)NC(=O)CNC(=O)C(CO)NC(=O)C(C(O)C5CNC(=N)N5C5OC(CO)C(O)C(O)C5O)NC(=O)C(C(O)C5CNC(=N)N5)NC4=O)cc3)C(O)C2O)OC(CO)C(O)C1O (stereo not shown) [Example 264a] ?
16 µg/mL

Quick one: MIC Staphylococcus aureus (ATCC 29213) for COc1ccc2cc(COC3C(CO)OC(OC4C(CO)OC(Oc5ccc(CC6NC(=O)C(C(C)c7ccccc7)NC(=O)CNC(=O)C(CO)NC(=O)C(C(O)C7CNC(=N)N7C7OC(CO)C(O)C(O)C7O)NC(=O)C(C(O)C7CNC(=N)N7)NC6=O)cc5)C(O)C4O)C(O)C3O)ccc2c1 (stereo not shown) [Example 230a] ?
1 to 2 µg/mL

Quick one: MIC Staphylococcus aureus (ATCC 29213) for CSc1ccc(C2OCC3OC(OC4C(CO)OC(Oc5ccc(CC6NC(=O)C(C(C)c7ccccc7)NC(=O)CNC(=O)C(CO)NC(=O)C(C(O)C7CNC(=N)N7C7OC(CO)C(O)C(O)C7O)NC(=O)C(C(O)C7CNC(=N)N7)NC6=O)cc5)C(O)C4O)C(O)C(O)C3O2)cc1[N+](=O)[O-] (stereo not shown) [Example 168] ?
1 µg/mL

Quick one: MIC Staphylococcus aureus (ATCC 29213) for CC(c1ccccc1)C1NC(=O)CNC(=O)C(CO)NC(=O)C(C(O)C2CNC(=N)N2C2OC(CO)C(O)C(O)C2O)NC(=O)C(C(O)C2CNC(=N)N2)NC(=O)C(Cc2ccc(OC3OC(CO)C(OC4OC(COCc5ccc(Oc6ccccc6)cc5)C(O)C(O)C4O)C(O)C3O)cc2)NC1=O (stereo not shown) [Example 236] ?
2 µg/mL

Just for reference, patent US6914045B2 is where these values come from.
